Data origin: patent US20160095923A1

Reported T (max) is given for each of the following compounds.
Assay summary: Bioavailability after oral administration or intravenous injection in Wistar rats (free/total polyphenol in plasma, LC-MS/MS)
Assay conditions: free catechin, per os, dose equivalent to 100 mg/kg catechin, 5 rats
Experimental: The experimental results described below were obtained on the basis of a study carried out in healthy human beings and in healthy Wistar rats weighing approximately 250 grams. An acclimation period was observed before beginning the experiments. […] The free (+)-catechin was extracted from the plasma with a solution of phosphoric acid, EDTA and ascorbic acid and was then purified by SPE (solid phase extraction); in particular, it is an Oasis™ HLB extraction which is analyzed by LC-MS/MS. […]
Number only, in h; omit the unit.

Compound	Numeric value
N=C(N)NCCCC(N)C(=O)O.Oc1cc(O)c2c(c1)O[C@H](c1ccc(O)c(O)c1)[C@@H](O)C2 [[C:Arg/1:1]]	1
NCCCCC(N)C(=O)O.Oc1cc(O)c2c(c1)O[C@H](c1ccc(O)c(O)c1)[C@@H](O)C2 [[C:Lys/1:1]]	1
Oc1cc(O)c2c(c1)O[C@H](c1ccc(O)c(O)c1)[C@@H](O)C2 [CP, (+)-catechin]	1

Okay, now this compound:
Query block: Give the measured T (max) of NCCCCC(N)C(=O)O.NCCCCC(N)C(=O)O.Oc1cc(O)c2c(c1)O[C@H](c1ccc(O)c(O)c1)[C@@H](O)C2 [[C:Lys/1:2]] .
Result block: 2
